Molecular target: human ether-à-go-go-related gene (hERG) potassium channel (human);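 further: peak tail current of the secondary pulse compared with the same well before compound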
Sequence (Q12809 whole entry, looked up): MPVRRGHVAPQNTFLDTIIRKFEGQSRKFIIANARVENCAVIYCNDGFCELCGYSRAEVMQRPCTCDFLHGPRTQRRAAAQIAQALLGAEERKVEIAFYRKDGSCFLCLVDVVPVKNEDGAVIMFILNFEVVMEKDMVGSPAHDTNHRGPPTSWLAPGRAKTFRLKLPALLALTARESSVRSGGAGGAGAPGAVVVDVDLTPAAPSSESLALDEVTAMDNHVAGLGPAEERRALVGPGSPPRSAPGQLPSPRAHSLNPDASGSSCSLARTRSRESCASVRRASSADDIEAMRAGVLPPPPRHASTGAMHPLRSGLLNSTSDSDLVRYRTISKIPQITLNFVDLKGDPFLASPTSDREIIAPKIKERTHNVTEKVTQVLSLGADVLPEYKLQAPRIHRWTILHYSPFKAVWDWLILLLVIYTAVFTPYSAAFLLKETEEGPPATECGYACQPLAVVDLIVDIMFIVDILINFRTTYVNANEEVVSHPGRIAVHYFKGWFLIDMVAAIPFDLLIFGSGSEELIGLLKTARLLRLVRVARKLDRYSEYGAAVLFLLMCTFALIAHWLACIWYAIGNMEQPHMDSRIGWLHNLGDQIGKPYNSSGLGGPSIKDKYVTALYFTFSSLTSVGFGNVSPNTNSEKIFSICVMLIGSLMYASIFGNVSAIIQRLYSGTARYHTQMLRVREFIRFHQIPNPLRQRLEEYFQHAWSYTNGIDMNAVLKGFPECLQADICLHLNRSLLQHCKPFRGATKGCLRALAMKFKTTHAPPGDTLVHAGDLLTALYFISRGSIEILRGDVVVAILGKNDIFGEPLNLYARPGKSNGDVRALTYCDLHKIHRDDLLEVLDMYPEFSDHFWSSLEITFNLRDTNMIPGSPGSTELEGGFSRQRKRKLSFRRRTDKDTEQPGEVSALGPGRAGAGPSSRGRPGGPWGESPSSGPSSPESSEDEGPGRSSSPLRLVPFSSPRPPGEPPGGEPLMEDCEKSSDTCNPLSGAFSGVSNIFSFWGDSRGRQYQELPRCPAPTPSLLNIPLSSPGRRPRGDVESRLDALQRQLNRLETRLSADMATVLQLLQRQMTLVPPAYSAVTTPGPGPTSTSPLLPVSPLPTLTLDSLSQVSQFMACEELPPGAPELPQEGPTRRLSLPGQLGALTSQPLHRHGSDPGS
Assay: primary screen, population patch clamp on CHO cells stably expressing hERG; higher = less effect of the substance
About 14,000 (4.5%) of roughly 310,000 compounds showed an effect of 50% or more. The effect is printed as a negative number. The full list was thinned out, with strong results kept by preference.
outcome_measure: hERG current change (%, negative = inhibition) at 10uM (%)
Field format: number, assumed %, no unit text.

Use the examples below as a reference point.
>>> measured("COC(=O)C1=NN(c2cccc(C)c2)C2C(=O)N(c3ccccc3OC)C(=O)C12 (centres unmarked)")
-4.79
>>> measured("COc1ccc(CN2CCN(C(=O)CCC(=O)Nc3nnc(CC(C)C)s3)CC2)cc1F")
-17.9
>>> measured("CC1CCN(c2ccc(C(=O)O)cc2)CC1")
2.86
>>> measured("COc1ccc(C(=O)Nn2c(SCC(=O)NCC3CCCO3)nc3ccccc3c2=O)cc1 (centres unmarked)")
2.75

Now let's try a different one.
Fill in: hERG current change (%, negative = inhibition) at 10uM of COc1ccc(C(=O)Nn2c(CC(C)C)nc3cc(Cl)ccc3c2=O)c(OC)c1 is ___ 13.4

====

Molecular target: human ether-à-go-go-related gene (hERG) potassium channel (human);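 further: peak tail current of the secondary pulse compared with the same well before compound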
Assay: primary screen, population patch clamp on CHO cells stably expressing hERG; higher = less effect of the substance
Screen size: about 310,000 compounds; about 14,000 (4.5%) showed an effect of 50% or more. Effects have a minus sign here. This is one part of a sample in which strong results are shown more often than they occur.
The label depends only on hERG current change (%, negative = inhibition) at 10uM: Met if it is at least -20%, Not met if it is smaller.

Would you please look over these solved cases?
>>> category_label("CCNC(=O)c1ccccc1NC(=O)c1cccc(S(=O)(=O)N2CCOCC2)c1")
"Not met"
>>> category_label("CC(NC(=O)C1CCN(S(=O)(=O)N2CCC3(CC2)OCCO3)CC1)c1ccccc1 (stereo not drawn)")
"Met"
>>> category_label("Cc1ccc(C)c(OCC(O)CNC2CCCC2)c1.Cl (stereo not drawn)")
"Met"
>>> category_label("Cc1ccc(-n2cc(CNC(C)c3cnn(C)c3C)c(-c3ccc(F)cc3)n2)cc1 (stereo not drawn)")
"Not met"

For this compound, is measured hERG current change (%, negative = inhibition) at 10uM -20% or higher? Fc1ccc(-c2nnc(Cc3nnc(-c4ccc(F)cc4)o3)o2)cc1 Met

Would you kindly repeat that for Fc1ccc(-c2nnc(Cc3ccc(Cl)cc3)o2)cc1 ? Met

Would you kindly repeat that for CCOC(=O)CN(C)Cc1cn[nH]c1-c1ccc2cc(OC)ccc2c1 ? Met

Would you kindly repeat that for COc1ccc2cc(-c3[nH]ncc3CNCCn3nc(C)cc3C)ccc2c1 ? Not met

Would you kindly repeat that for Cc1ccc(-n2cc(CNCCN3CCOC3=O)c(-c3ccc(F)cc3)n2)cc1 ? Not met

Would you kindly repeat that for COCCCN(Cc1cccs1)S(=O)(=O)c1c[nH]c(C(=O)OC)c1 ? Met

Would you kindly repeat that for Nc1ccc(C(=O)OCC(=O)c2cccc([N+](=O)[O-])c2)cc1 ? Met

Would you kindly repeat that for O=C1OCCN1CCNCc1cn(-c2ccc(F)cc2)nc1-c1ccccc1Cl ? Not met

Would you kindly repeat that for CCOC(=O)c1c(NC(=O)CN(C)C)sc(C(=O)N(CC)CC)c1C.O=C(O)C(=O)O ? Met
